target: S. cerevisiae ODC (Saccharomyces cerevisiae, UniProt P08432)
Sequence (P08432 whole entry): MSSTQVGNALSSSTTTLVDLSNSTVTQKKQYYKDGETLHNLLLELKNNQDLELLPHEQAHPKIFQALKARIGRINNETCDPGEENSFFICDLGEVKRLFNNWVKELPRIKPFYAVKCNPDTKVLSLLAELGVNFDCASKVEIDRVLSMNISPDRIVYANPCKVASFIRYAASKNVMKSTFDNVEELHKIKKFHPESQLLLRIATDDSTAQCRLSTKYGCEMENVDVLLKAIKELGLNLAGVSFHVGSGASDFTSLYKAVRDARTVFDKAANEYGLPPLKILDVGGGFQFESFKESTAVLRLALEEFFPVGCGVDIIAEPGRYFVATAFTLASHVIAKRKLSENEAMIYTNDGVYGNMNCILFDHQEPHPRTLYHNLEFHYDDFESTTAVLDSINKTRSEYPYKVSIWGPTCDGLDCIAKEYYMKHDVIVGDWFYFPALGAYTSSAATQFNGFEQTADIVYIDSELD
pKi: −log10 of the molar value.
measuredAttribute: pKi

smilesstructure=NCCCCN valuereported=3.60
